Ref: ChEMBL document CHEMBL5214960

Test: Tmax in Sprague-Dawley rat plasma at 30 mg/kg, po measured after 24 hrs by LC-MS/MS analysis
Type: ADME, organism-based
Details: in vivo
Give measured Tmax for each item. Keep answers brief.
One number for each entry, in h.

Here are 3 molecules together with their reported answers.
# input Could you tell me which Tmax is on file for "Cc1c(Br)cc(NC(=O)CS(=O)(=O)O)cc1Br" ?
# output 1.7

# input Now consider "Cc1c(Br)cc(NC(=O)NS(=O)(=O)O)cc1Br" .
# output 2.7

# input Now try "O=C(CS(=O)(=O)O)Nc1ccc(N2CCOCC2)c(Br)c1" .
# output 1

Let us move to another entry and its Tmax.
# input Looking for the measured Tmax of Cc1c(Br)cc(NC(=O)C(c2ccccc2)S(=O)(=O)O)cc1Br (centres undefined) , can you help?
# output 2.7

* * *

Test: Oral bioavailability in CD-1 mouse plasma at 10 mg/kg measured after 8 hrs by LC-MS/MS analysis
Type: ADME, organism-based
Settings: CD-1, mouse, plasma
Measurement Kind: bioavailability (%)
Give bare numbers, in %.

# input Please look up its bioavailability: Cc1c(Br)cc(NC(=O)C(c2ccccc2)S(=O)(=O)O)cc1Br (stereo unspecified)
# output 50

* * *

Can you tell me IC50 for the items I'm about to list?
Biological target: Low molecular weight phosphotyrosine protein phosphatase (Mus musculus)
Sequence (Q9D358 whole entry): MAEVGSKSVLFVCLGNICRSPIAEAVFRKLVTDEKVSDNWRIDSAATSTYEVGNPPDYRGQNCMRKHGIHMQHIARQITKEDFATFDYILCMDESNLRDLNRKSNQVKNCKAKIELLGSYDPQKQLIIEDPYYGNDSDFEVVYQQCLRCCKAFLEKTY
Numbers only, in nM.

Field: example entries. Status: answers known.
# input For the compound shown here, "Cc1c(Br)cc(NC(=O)NS(=O)(=O)O)cc1Br" , give the reported IC50.
# output 3

# input What do you have for "Cc1c(Br)cc(NC(=O)CS(=O)(=O)O)cc1Br" ?
# output 62

# input Same lookup for Cc1c(Br)cc(NC(=O)C(c2ccccc2)S(=O)(=O)O)cc1Br (centres undefined) , please.
# output 200

Further cases:
# input I would be grateful if you could share the reported IC50 for "O=C(CS(=O)(=O)O)Nc1ccc(N2CCOCC2)c(Br)c1" .
# output 36

* * *

Target: Tyrosine-protein phosphatase non-receptor type 3 (Homo sapiens, UniProt P26045)
Sequence (P26045 whole entry): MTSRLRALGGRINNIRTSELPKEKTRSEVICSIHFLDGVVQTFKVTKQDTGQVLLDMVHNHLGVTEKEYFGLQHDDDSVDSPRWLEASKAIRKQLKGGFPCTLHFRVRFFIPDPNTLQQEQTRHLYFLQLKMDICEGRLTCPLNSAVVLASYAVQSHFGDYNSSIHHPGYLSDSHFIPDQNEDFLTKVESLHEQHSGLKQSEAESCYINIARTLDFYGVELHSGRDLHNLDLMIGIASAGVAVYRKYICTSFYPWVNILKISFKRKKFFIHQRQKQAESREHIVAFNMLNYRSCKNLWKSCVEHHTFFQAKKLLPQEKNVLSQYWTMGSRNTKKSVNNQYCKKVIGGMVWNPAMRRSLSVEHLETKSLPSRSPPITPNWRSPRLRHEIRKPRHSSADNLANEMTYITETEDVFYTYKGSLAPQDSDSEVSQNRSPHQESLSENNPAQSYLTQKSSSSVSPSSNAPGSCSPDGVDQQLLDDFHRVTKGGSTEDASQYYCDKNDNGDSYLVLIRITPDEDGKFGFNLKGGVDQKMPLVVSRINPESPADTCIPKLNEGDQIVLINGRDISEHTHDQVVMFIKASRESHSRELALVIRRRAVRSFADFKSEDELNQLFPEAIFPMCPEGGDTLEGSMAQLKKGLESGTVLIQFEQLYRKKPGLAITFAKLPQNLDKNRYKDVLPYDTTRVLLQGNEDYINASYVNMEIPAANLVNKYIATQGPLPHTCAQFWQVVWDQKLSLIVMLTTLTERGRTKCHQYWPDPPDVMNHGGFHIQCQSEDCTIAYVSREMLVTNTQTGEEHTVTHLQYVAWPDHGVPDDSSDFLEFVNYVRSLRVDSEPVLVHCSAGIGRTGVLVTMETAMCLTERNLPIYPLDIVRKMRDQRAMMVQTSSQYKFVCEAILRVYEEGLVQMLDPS
pIC50: −log10 of the molar value.
Measurement Kind: pIC50

# input Which pIC50 value belongs to "Cc1c(Br)cc(NC(=O)NS(=O)(=O)O)cc1Br" ?
# output < 5.00
